Origin of the recorded values: patent US9169243B2

# subject-of-test: recombinant human ASK1 kinase (Homo sapiens (Human), UniProt Q99683)
# Sequence (Q99683 whole entry): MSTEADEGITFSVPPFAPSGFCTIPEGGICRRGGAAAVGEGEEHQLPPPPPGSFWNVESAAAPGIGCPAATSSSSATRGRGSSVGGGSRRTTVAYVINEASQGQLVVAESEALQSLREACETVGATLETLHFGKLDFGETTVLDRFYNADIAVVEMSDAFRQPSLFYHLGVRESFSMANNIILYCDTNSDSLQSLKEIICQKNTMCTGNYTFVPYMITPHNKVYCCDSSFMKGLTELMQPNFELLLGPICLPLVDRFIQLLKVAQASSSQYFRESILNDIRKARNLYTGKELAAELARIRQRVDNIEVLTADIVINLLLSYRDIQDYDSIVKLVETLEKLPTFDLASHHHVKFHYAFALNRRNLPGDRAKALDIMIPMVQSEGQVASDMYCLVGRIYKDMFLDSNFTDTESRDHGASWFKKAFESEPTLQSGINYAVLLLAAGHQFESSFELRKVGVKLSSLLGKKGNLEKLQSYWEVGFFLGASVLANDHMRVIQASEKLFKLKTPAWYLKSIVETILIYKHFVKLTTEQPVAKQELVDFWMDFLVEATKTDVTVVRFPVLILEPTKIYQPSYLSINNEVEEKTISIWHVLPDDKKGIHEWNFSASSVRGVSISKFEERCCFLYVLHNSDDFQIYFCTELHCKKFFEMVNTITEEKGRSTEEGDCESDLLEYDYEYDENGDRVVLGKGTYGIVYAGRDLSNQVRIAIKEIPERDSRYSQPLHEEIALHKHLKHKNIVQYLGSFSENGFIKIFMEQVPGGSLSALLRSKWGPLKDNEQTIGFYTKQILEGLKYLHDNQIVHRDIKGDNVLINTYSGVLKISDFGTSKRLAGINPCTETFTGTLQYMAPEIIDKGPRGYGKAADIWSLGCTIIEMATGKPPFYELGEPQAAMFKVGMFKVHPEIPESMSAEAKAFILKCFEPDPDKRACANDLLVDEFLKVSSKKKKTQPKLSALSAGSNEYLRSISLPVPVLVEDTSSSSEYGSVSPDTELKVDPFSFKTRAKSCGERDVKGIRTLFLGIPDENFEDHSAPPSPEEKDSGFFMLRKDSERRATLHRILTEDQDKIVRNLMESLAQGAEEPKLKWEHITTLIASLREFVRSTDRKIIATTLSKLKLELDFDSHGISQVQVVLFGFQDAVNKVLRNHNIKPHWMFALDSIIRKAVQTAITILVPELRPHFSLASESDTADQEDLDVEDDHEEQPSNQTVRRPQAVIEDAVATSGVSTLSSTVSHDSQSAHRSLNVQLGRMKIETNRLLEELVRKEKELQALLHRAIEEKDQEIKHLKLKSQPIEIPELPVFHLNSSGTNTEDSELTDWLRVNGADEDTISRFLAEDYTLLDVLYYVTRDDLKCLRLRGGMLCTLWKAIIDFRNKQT
# protocol-description: TR-FRET ASK1 (Apoptosis Signal-Regulating Kinase 1) kinase assay
# assay-setup: TR-FRET/HTRF, 4 nM ASK1, 1 μM STK3 peptide substrate, 100 μM ATP, 3 hr; average of quadruplicate determination
measurement-type: IC50 (nM)

O=C(Nc1csc(-c2nncn2C2CC2)n1)c1cc(-n2cnc(C3CC3)c2)c(N2CCN(CC3CC3)CC2)cn1 | 2.5

I. C[C@H](n1cnnc1-c1nc(NC(=O)c2cc(-n3cnc(C4CC4)c3)c(N3CCC(C(F)(F)F)CC3)cn2)cs1)C(F)(F)F
II. CNC(=O)C1CCN(c2cnc(C(=O)Nc3csc(-c4nncn4[C@@H](C)C(F)(F)F)n3)cc2-n2cnc(C3CC3)c2)CC1
Hi, I'm comparing I with II and wondering which one has the bigger number for IC50. Any idea? Mark your answer with the label of the selected entry.
II

1. C[C@H](n1cnnc1-c1nc(NC(=O)c2cc(-n3cnc(C4CC4)c3)c(N3CCC(C#N)CC3)cn2)cs1)C(F)(F)F
2. O=C(Nc1csc(-c2nncn2C2CC2)n1)c1cc(-n2cnc(C3CC3)c2)c(N2CCN3C(=O)OCC3C2)cn1 (stereo not shown)
Hi, I'm comparing 1 with 2 and wondering which one has the bigger number for IC50. Any idea? Mark your answer with the label of the selected entry.
2
(2: 2.7 nM, 1: 1.7 nM)

P. C[C@H](n1cnnc1-c1nc(NC(=O)c2cc(-n3cnc(C4CC4)c3)c(N3CCC(F)CC3)cn2)cs1)C(F)(F)F
Q. O=C(Nc1csc(-c2nncn2C2CC2)n1)c1cc(-n2cnc(C3CC3)c2)c(N2CCC(C(F)(F)F)CC2)cn1
# compare IC50 for P vs Q ; return the one with the smaller value Mark your answer with the label of the selected entry.
P

----------
# subject-of-test: recombinant human ASK1 kinase (Homo sapiens (Human), UniProt Q99683)
# protocol-description: TR-FRET ASK1 (Apoptosis Signal-Regulating Kinase 1) kinase assay
# assay-setup: TR-FRET/HTRF, 4 nM ASK1, 1 μM STK3 peptide substrate, 100 μM ATP, 3 hr; average of quadruplicate determination
# From the text: I. TR-FRET ASK1 (Apoptosis Signal-Regulating Kinase 1) Kinase Assay To evaluate the inhibitory activity of compounds of the invention against ASK1 (Apoptosis Signal-regulating Kinase 1) kinase, its activity was examined using a TR-FRET ASK1 kinase assay which determined the amount of phosphate transferred to a peptide substrate from ATP. Dephosphorylated recombinant human ASK1 kinase was from Gilead Sciences. […]
measurement-type: IC50 (nM)

COC1CCN(c2cnc(C(=O)Nc3csc(-c4nncn4C4CC4)n3)cc2-n2cnc(C3CC3)c2)C1 (stereo not drawn) | 2.8

A. O=C(Nc1csc(-c2nncn2C2CC2)n1)c1cc(-n2cnc(C3CC3)c2)c(N2CCCOCC2)cn1
B. N#CC1CCN(c2cnc(C(=O)Nc3csc(-c4nncn4C4CC4)n3)cc2-n2cnc(C3CC3)c2)CC1
# compare IC50 for A vs B ; return the one with the smaller value Mark your answer with the label of the selected entry.
B

----------
# subject-of-test: recombinant human ASK1 kinase (Homo sapiens (Human), UniProt Q99683)
# protocol-description: TR-FRET ASK1 (Apoptosis Signal-Regulating Kinase 1) kinase assay
# assay-setup: TR-FRET/HTRF, 4 nM ASK1, 1 μM STK3 peptide substrate, 100 μM ATP, 3 hr; average of quadruplicate determination
measurement-type: IC50 (nM)

The examples below pair each entry with its known result.
C[C@H](n1cnnc1-c1nc(NC(=O)c2cc(-n3cnc(C4CC4)c3)c(N3CC(N4CCOCC4)C3)cn2)cs1)C(F)(F)F | 1.9
C[C@H](n1cnnc1-c1nc(NC(=O)c2cc(-n3cnc(C4CC4)c3)c(N3CCN4CCCC4C3)cn2)cs1)C(F)(F)F (stereo partly drawn) | 1.8
O=C(Nc1csc(-c2nncn2C2CC2)n1)c1cc(-n2cnc(C3CC3)c2)c(N2CC(F)(F)C2)cn1 | 2.8
COC1(C)CCN(c2cnc(C(=O)Nc3csc(-c4nncn4[C@@H](C)C(F)(F)F)n3)cc2-n2cnc(C3CC3)c2)CC1 | 2.2
C[C@H](n1cnnc1-c1nc(NC(=O)c2cc(-n3cnc(C4CC4)c3)c(N3CC4(CCOCC4)C3)cn2)cs1)C(F)(F)F | 2.6
C[C@H](n1cnnc1-c1nc(NC(=O)c2cc(-n3cnc(C4CC4)c3)c(N3CCCOCC3)cn2)cs1)C(F)(F)F | 1.9
C[C@H](n1cnnc1-c1nc(NC(=O)c2cc(-n3cnc(C4CC4)c3)c(N3CC4CN(C)CC4C3)cn2)cs1)C(F)(F)F (stereo partly drawn) | 2.4
COC1(C)CCN(c2cnc(C(=O)Nc3csc(-c4nncn4C4CC4)n3)cc2-n2cnc(C3CC3)c2)CC1 | 14.2
C[C@H](n1cnnc1-c1nc(NC(=O)c2cc(-n3cnc(C4CC4)c3)c(N3CCN(C4CC4)CC3)cn2)cs1)C(F)(F)F | 1.8
CC1(C#N)CN(c2cnc(C(=O)Nc3csc(-c4nncn4C4CC4)n3)cc2-n2cnc(C3CC3)c2)C1 | 1.9

a. C[C@H](n1cnnc1-c1nc(NC(=O)c2cc(-n3cnc(C4CC4)c3)c(N3CC(C(F)F)C3)cn2)cs1)C(F)(F)F
b. O=C(Nc1csc(-c2nncn2C2CC2)n1)c1cc(-n2cnc(C3CC3)c2)c(N2CC3(CCOCC3)C2)cn1
Hi, I'm comparing a with b and wondering which one has the bigger number for IC50. Any idea? Mark your answer with the label of the selected entry.
b
(b: 4.5 nM, a: 1.7 nM)

----------
# subject-of-test: recombinant human ASK1 kinase (Homo sapiens (Human))
# protocol-description: TR-FRET ASK1 (Apoptosis Signal-Regulating Kinase 1) kinase assay
# assay-setup: TR-FRET/HTRF, 4 nM ASK1, 1 μM STK3 peptide substrate, 100 μM ATP, 3 hr; average of quadruplicate determination
# Source text: I. TR-FRET ASK1 (Apoptosis Signal-Regulating Kinase 1) Kinase Assay To evaluate the inhibitory activity of compounds of the invention against ASK1 (Apoptosis Signal-regulating Kinase 1) kinase, its activity was examined using a TR-FRET ASK1 kinase assay which determined the amount of phosphate transferred to a peptide substrate from ATP. Dephosphorylated recombinant human ASK1 kinase was from Gilead Sciences. […]
measurement-type: IC50 (nM)

1. O=C(Nc1csc(-c2nncn2C2CC2)n1)c1cc(-n2cnc(C3CC3)c2)c(N2CC3CC3C2)cn1 (stereo not shown) [Compound 17]
2. O=C(Nc1csc(-c2nncn2C2CC2)n1)c1cc(-n2cnc(C3CC3)c2)c(N2CCC(F)CC2)cn1 [Compound 8]
Hi, I'm comparing 1 with 2 and wondering which one has the bigger number for IC50. Any idea? Mark your answer with the label of the selected entry.
2
(2: 2.5 nM, 1: 1.1 nM)

1. N#CC1CN(c2cnc(C(=O)Nc3csc(-c4nncn4C4CC4)n3)cc2-n2cnc(C3CC3)c2)C1 [Compound 2]
2. O=C(Nc1csc(-c2nncn2C2CC2)n1)c1cc(-n2cnc(C3CC3)c2)c(N2CCC3(CC2)COC3)cn1 [Compound 21]
Hi, I'm comparing 1 with 2 and wondering which one has the bigger number for IC50. Any idea? Mark your answer with the label of the selected entry.
2
(2: 1.9 nM, 1: 0.9 nM)

----------
# subject-of-test: recombinant human ASK1 kinase (Homo sapiens (Human))
# protocol-description: TR-FRET ASK1 (Apoptosis Signal-Regulating Kinase 1) kinase assay
# Assay type: biochemical
# assay-setup: TR-FRET/HTRF, 4 nM ASK1, 1 μM STK3 peptide substrate, 100 μM ATP, 3 hr; average of quadruplicate determination
measurement-type: IC50 (nM)

The examples below pair each entry with its known result.
C[C@H](n1cnnc1-c1nc(NC(=O)c2cc(-n3cnc(C4CC4)c3)c(N3CCC(F)(F)C3)cn2)cs1)C(F)(F)F [Compound 27] | 2.1
O=C(Nc1csc(-c2nncn2C2CC2)n1)c1cc(-n2cnc(C3CC3)c2)c(N2CC(N3CCOCC3)C2)cn1 [Compound 18] | 2.3

1. COC1CCN(c2cnc(C(=O)Nc3csc(-c4nncn4C4CC4)n3)cc2-n2cnc(C3CC3)c2)CC1 [Compound 10]
2. C[C@H](n1cnnc1-c1nc(NC(=O)c2cc(-n3cnc(C4CC4)c3)c(N3CCN(CC4CC4)CC3)cn2)cs1)C(F)(F)F [Compound 43]
Hi, I'm comparing 1 with 2 and wondering which one has the bigger number for IC50. Any idea? Mark your answer with the label of the selected entry.
1

----------
# subject-of-test: recombinant human ASK1 kinase (Homo sapiens (Human), UniProt Q99683)
# protocol-description: TR-FRET ASK1 (Apoptosis Signal-Regulating Kinase 1) kinase assay
# assay-setup: TR-FRET/HTRF, 4 nM ASK1, 1 μM STK3 peptide substrate, 100 μM ATP, 3 hr; average of quadruplicate determination
pIC50: −log10 of the molar value.
measurement-type: pIC50

C[C@H](n1cnnc1-c1nc(NC(=O)c2cc(-n3cnc(C4CC4)c3)c(N3CCN4C(=O)OCC4C3)cn2)cs1)C(F)(F)F (some centres unmarked) | 8.64
O=C(Nc1csc(-c2nncn2C2CC2)n1)c1cc(-n2cnc(C3CC3)c2)c(N2CC(C(F)F)C2)cn1 | 8.66
COC1(C)CN(c2cnc(C(=O)Nc3csc(-c4nncn4[C@@H](C)C(F)(F)F)n3)cc2-n2cnc(C3CC3)c2)C1 | 8.70
COC1(C)CN(c2cnc(C(=O)Nc3csc(-c4nncn4C4CC4)n3)cc2-n2cnc(C3CC3)c2)C1 | 8.74
O=C(Nc1csc(-c2nncn2C2CC2)n1)c1cc(-n2cnc(C3CC3)c2)c(N2CCN(CC(F)(F)F)CC2)cn1 | 8.54
O=C(Nc1csc(-c2nncn2C2CC2)n1)c1cc(-n2cnc(C3CC3)c2)c(N2CCN(C3CC3)CC2)cn1 | 8.55
COCC1CN(c2cnc(C(=O)Nc3csc(-c4nncn4[C@@H](C)C(F)(F)F)n3)cc2-n2cnc(C3CC3)c2)C1 | 8.70
C[C@H](n1cnnc1-c1nc(NC(=O)c2cc(-n3cnc(C4CC4)c3)c(N3CCC4(CC3)COC4)cn2)cs1)C(F)(F)F | 8.68
C[C@H](n1cnnc1-c1nc(NC(=O)c2cc(-n3cnc(C4CC4)c3)c(N3CC4CC4C3)cn2)cs1)C(F)(F)F (some centres unmarked) | 8.66

I. COC1CCN(c2cnc(C(=O)Nc3csc(-c4nncn4[C@@H](C)C(F)(F)F)n3)cc2-n2cnc(C3CC3)c2)CC1
II. CNC(=O)C1CCN(c2cnc(C(=O)Nc3csc(-c4nncn4C4CC4)n3)cc2-n2cnc(C3CC3)c2)CC1
# compare pIC50 for I vs II ; return the one with the smaller value Mark your answer with the label of the selected entry.
I
